Please respond with reported inhibition for every item in the list.
Target: Nucleotide-binding oligomerization domain-containing protein 1 (Homo sapiens) (UniProt Q9Y239)
Sequence (Q9Y239 whole entry, the tested form may be a part): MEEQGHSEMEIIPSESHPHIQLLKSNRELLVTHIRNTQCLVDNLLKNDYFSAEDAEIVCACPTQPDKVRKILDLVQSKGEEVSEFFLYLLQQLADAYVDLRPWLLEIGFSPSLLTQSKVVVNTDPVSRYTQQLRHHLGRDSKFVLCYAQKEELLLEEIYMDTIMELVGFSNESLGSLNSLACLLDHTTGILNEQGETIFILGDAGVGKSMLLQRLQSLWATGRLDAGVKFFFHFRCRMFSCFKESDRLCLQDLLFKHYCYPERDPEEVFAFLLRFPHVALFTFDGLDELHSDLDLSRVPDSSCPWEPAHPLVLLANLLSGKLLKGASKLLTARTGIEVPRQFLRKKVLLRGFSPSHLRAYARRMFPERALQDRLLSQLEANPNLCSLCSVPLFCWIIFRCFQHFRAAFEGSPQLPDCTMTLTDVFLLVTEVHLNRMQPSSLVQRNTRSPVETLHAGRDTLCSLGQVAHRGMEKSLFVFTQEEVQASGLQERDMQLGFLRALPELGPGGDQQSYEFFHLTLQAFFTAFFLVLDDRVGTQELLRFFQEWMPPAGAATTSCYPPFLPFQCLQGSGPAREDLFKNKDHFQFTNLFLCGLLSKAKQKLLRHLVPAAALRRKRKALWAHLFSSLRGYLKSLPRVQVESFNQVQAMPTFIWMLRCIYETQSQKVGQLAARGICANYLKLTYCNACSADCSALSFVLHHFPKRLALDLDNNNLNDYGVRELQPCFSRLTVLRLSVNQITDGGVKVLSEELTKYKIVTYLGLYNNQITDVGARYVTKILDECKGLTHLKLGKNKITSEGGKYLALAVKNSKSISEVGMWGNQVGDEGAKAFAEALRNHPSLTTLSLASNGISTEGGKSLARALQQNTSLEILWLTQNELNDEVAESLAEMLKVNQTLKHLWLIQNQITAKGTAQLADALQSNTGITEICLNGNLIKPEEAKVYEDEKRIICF
Test: Antagonist activity at NOD1 in HEK-Blue hNOD1 cells assessed as inhibition of C12-iE-DAP-induced NFkappaB activation-mediated SEAP release at 5 uM preincubated for 3 hrs followed by C12-iE-DAP addition and measured after 20 hrs by spectrophotometric method relative to control
Type: cell-based
Details: filed as antagonist, time 23.0 hrs
Answers are plain numbers, in %.

{"columns": ["CHEMICAL STRUCTURE", "inhibition / %"],
 "data": [
  ["O=C(NCCCc1ccc(Cl)cc1)c1cc2nc[nH]c(=O)c2cc1-c1cccc(Cl)c1", 41.5],
  ["COC(=O)Cn1cnc2cc(NC(=O)CCCOc3ccc(C(F)(F)F)cc3)c(Oc3cccc(N4CCOCC4)c3)cc2c1=O", 91.2]
]}

Need inhibition for each of these molecules.
1. COC(=O)Cn1cnc2cc(NC(=O)COCc3ccc(C(F)(F)F)cc3)c(Oc3cccc(N(C)C)c3)cc2c1=O
2. O=C(NCCCOc1ccc(C(F)(F)F)cc1)c1cc2ncn(CC(=O)N3CCCC(F)(F)C3)c(=O)c2cc1-c1cccc(Cl)c1
3. O=C(NCCOCc1ccc(C(F)(F)F)cc1)c1cc2nc[nH]c(=O)c2cc1-c1cccc(F)c1
4. O=C(CCCOc1ccc(C(F)(F)F)cc1)Nc1cc2nc[nH]c(=O)c2cc1Oc1cccc(N2CCOCC2)c1
5. CN(C)c1cccc(Oc2cc3c(=O)n(CC(=O)N4CCC(F)(F)CC4)cnc3cc2NC(=O)COCc2ccc(C(F)(F)F)cc2)c1

[85.4, 91.4, 56.1, 65.4, 82]

Looking for the measured inhibition of "COC(=O)Cn1cnc2cc(C(=O)NCCCc3ccc(Cl)cc3)c(-c3cccc(Cl)c3)cc2c1=O" , can you help?
58.2

---

Please respond with reported pIC50 for every item in the list.
Biological target: Nucleotide-binding oligomerization domain-containing protein 1 (Homo sapiens)
Sequence (Q9Y239 whole entry, the tested form may be a part): as above
Test: Antagonist activity at NOD1 in HEK-Blue hNOD1 cells assessed as inhibition of C12-iE-DAP-induced NFkappaB activation-mediated SEAP release preincubated for 3 hrs followed by C12-iE-DAP addition and measured after 20 hrs by spectrophotometric method
Format: cell-based
One number for each entry, as −log10 of the molar value.

Here are 5 molecules together with their reported answers.
{"columns": ["CHEMICAL STRUCTURE", "TARGET UNDER TEST", "pIC50"],
 "data": [
  ["COC(=O)Cn1cnc2cc(C(=O)NCCCc3ccc(Cl)cc3)c(-c3cccc(F)c3)cc2c1=O", "Nucleotide-binding oligomerization domain-containing protein 1 (Homo sapiens)", 5.49],
  ["COC(=O)Cn1cnc2cc(NC(=O)COCc3ccc(C(F)(F)F)cc3)c(Oc3ccccc3N(C)C)cc2c1=O", "Nucleotide-binding oligomerization domain-containing protein 1 (Homo sapiens)", 5.78],
  ["O=C(CCCOc1ccc(C(F)(F)F)cc1)Nc1cc2nc[nH]c(=O)c2cc1Oc1cccc(N2CCOCC2)c1", "Nucleotide-binding oligomerization domain-containing protein 1 (Homo sapiens)", 5.61],
  ["COC(=O)Cn1cnc2cc(NC(=O)COCc3ccc(Cl)cc3)c(Oc3cccc(N(C)C)c3)cc2c1=O", "Nucleotide-binding oligomerization domain-containing protein 1 (Homo sapiens)", 5.37],
  ["CN(C)c1cccc(Oc2cc3c(=O)[nH]cnc3cc2NC(=O)CCCOc2ccc(C(F)(F)F)cc2)c1", "Nucleotide-binding oligomerization domain-containing protein 1 (Homo sapiens)", 5.25]
]}

Fill in pIC50 for each of the 3 molecules listed.
1. COC(=O)Cn1cnc2cc(C(=O)NCCCc3ccc(Cl)cc3)c(-c3cccc(Cl)c3)cc2c1=O
2. CN(C)c1cccc(Oc2cc3c(=O)n(CC(=O)N4CCC(F)CC4)cnc3cc2NC(=O)COCc2ccc(C(F)(F)F)cc2)c1
3. CN(C)c1cccc(Oc2cc3c(=O)n(CC(=O)N4CCCCC4)cnc3cc2NC(=O)COCc2ccc(C(F)(F)F)cc2)c1

1. 5.79
2. 6.68
3. 6.59
